- Test system: Staphylococcus aureus
- protocol-summary: Growth inhibition of methicillin-resistant Staphylococcus aureus ATCC 43300 at 32 ug/ml after 18 hrs
- Type: functional
- condition-description: ATCC 43300, 18 h, read-out: GI
The entries below are paired with their reported inhibition of growth at 32 µg/mL.
# unit: % | format: bare number

Challenge: What inhibition of growth at 32 µg/mL value was documented for this compound, CN1CCCN1C(=O)[C@@H]1CCCN1C(=O)N1CCCN1C(=O)[C@@H]1CCCN1C(=O)N1CCCN1C(=O)[C@@H]1CCCN1C(=O)N1CCCN1C(=O)[C@@H]1CCCN1C(=O)N1CCCN1C(=O)[C@@H]1CCCN1C(=O)N1CCCN1C(=O)[C@@H]1CCCN1C(=O)N1CCCN1C(=O)[C@@H]1CCCN1C(=O)N1CCCN1C(=O)[C@@H]1CCCN1C(=O)N1CCCN1C(=O)OCc1ccccc1 ?
Response given: 25.1

Challenge: Also check CC(C)(C)OC(=O)[C@@H]1CCCN1C(=O)N1CCCN1C(=O)[C@@H]1CCCN1C(=O)N1CCCN1C(=O)[C@@H]1CCCN1C(=O)N1CCCN1C(=O)[C@@H]1CCCN1C(=O)N1CCCN1C(=O)[C@@H]1CCCN1C(=O)N1CCCN1C(=O)[C@@H]1CCCN1C(=O)N1CCCN1C(=O)[C@@H]1CCCN1C(=O)N1CCCN1C(=O)[C@@H]1CCCN1C(=O)N1CCCN1C(=O)OCc1ccccc1
Response given: 20.5

Okay, next one:
Challenge: What inhibition of growth at 32 µg/mL value was documented for this compound, O=C(OCc1ccccc1)N1CCCN1C(=O)[C@@H]1CCCN1C(=O)N1CCCN1C(=O)[C@@H]1CCCN1C(=O)N1CCCN1C(=O)[C@@H]1CCCN1C(=O)N1CCCN1C(=O)[C@@H]1CCCN1C(=O)N1CCCN1C(=O)[C@@H]1CCCN1C(=O)N1CCCN1C(=O)[C@@H]1CCCN1C(=O)N1CCCN1C(=O)[C@@H]1CCCN1C(=O)N1CCCN1C(=O)[C@@H]1CCCN1 ?
Response given: 28.6

====

- protocol-summary: Hemolytic activity against human RBC at 50 uM after 1 hr by Drabkin's assay relative to control
- Format: ADME, cell-based, Erythrocyte
- condition-description: human red blood cells (erythrocytes), read-out: Activity
The entries below are paired with their reported hemolysis at 1 h, 50 µM.
# unit: % | format: bare number

Worked examples follow.
Challenge: What hemolysis at 1 h, 50 µM value was documented for this compound, CC(C)(C)OC(=O)[C@@H]1CCCN1C(=O)N1CCCN1C(=O)[C@@H]1CCCN1C(=O)N1CCCN1C(=O)[C@@H]1CCCN1C(=O)N1CCCN1C(=O)[C@@H]1CCCN1C(=O)N1CCCN1C(=O)OCc1ccccc1 ?
Response given: -0.09

Challenge: Also check CC(C)(C)OC(=O)[C@@H]1CCCN1C(=O)N1CCCN1C(=O)[C@@H]1CCCN1C(=O)N1CCCN1C(=O)[C@@H]1CCCN1C(=O)N1CCCN1C(=O)[C@@H]1CCCN1C(=O)N1CCCN1C(=O)[C@@H]1CCCN1C(=O)N1CCCN1C(=O)[C@@H]1CCCN1C(=O)N1CCCN1C(=O)[C@@H]1CCCN1C(=O)N1CCCN1C(=O)[C@@H]1CCCN1C(=O)N1CCCN1C(=O)OCc1ccccc1
Response given: -0.73

Challenge: Also check O=C(NCCO)[C@@H]1CCCN1C(=O)N1CCCN1C(=O)[C@@H]1CCCN1C(=O)N1CCCN1C(=O)[C@@H]1CCCN1C(=O)N1CCCN1C(=O)[C@@H]1CCCN1C(=O)N1CCCN1C(=O)[C@@H]1CCCN1C(=O)N1CCCN1C(=O)[C@@H]1CCCN1C(=O)N1CCCN1C(=O)[C@@H]1CCCN1C(=O)N1CCCN1C(=O)[C@@H]1CCCN1C(=O)N1CCCN1C(=O)OCc1ccccc1
Response given: -0.04

Challenge: Also check O=C(O)[C@@H]1CCCN1C(=O)N1CCCN1C(=O)[C@@H]1CCCN1C(=O)N1CCCN1C(=O)[C@@H]1CCCN1C(=O)N1CCCN1C(=O)[C@@H]1CCCN1C(=O)N1CCCN1C(=O)[C@@H]1CCCN1C(=O)N1CCCN1C(=O)[C@@H]1CCCN1C(=O)N1CCCN1C(=O)[C@@H]1CCCN1C(=O)N1CCCN1C(=O)[C@@H]1CCCN1C(=O)N1CCCN1C(=O)OCc1ccccc1
Response given: -0.361

Challenge: Also check CC(C)(C)OC(=O)N1CCC[C@H]1C(=O)N1CCCN1C(=O)N1CCC[C@H]1C(=O)N1CCCN1C(=O)N1CCC[C@H]1C(=O)N1CCCN1C(=O)N1CCC[C@H]1C(=O)N1CCCN1C(=O)N1CCC[C@H]1C(=O)N1CCCN1C(=O)N1CCC[C@H]1C(=O)N1CCCN1C(=O)N1CCC[C@H]1C(=O)N1CCCN1C(=O)N1CCC[C@H]1C(=O)N1CCCN1C(=O)OCc1ccccc1
Response given: -0.42

Continuing:
Challenge: What hemolysis at 1 h, 50 µM value was documented for this compound, O=CN1CCCN1C(=O)N1CCC[C@H]1C(=O)N1CCCN1C(=O)N1CCC[C@H]1C(=O)N1CCCN1C(=O)N1CCC[C@H]1C(=O)N1CCCN1C(=O)N1CCC[C@H]1C(=O)N1CCCN1C(=O)N1CCC[C@H]1C(=O)N1CCCN1C(=O)N1CCC[C@H]1C(=O)N1CCCN1C(=O)N1CCC[C@H]1C(=O)N1CCCN1C(=O)N1CCC[C@H]1C(=O)NCCO ?
Response given: -0.17

Challenge: Also check O=CN1CCCN1C(=O)N1CCC[C@H]1C(=O)N1CCCN1C(=O)N1CCC[C@H]1C(=O)N1CCCN1C(=O)N1CCC[C@H]1C(=O)N1CCCN1C(=O)N1CCC[C@H]1C(=O)N1CCCN1C(=O)N1CCC[C@H]1C(=O)N1CCCN1C(=O)N1CCC[C@H]1C(=O)N1CCCN1C(=O)N1CCC[C@H]1C(=O)NCCO
Response given: 0.4

====

- Tested on: Candida albicans
- protocol-summary: Growth inhibition of Candida albicans ATCC 90028 at 32 ug/ml after 24 hrs by OD530 light-scattering microspectrophotometric method
- condition-description: ATCC 90028, 24 h, read-out: GI
The entries below are paired with their reported inhibition of growth at 32 µg/mL.
# unit: % | format: bare number

Challenge: What inhibition of growth at 32 µg/mL value was documented for this compound, O=CN1CCCN1C(=O)N1CCC[C@H]1C(=O)N1CCCN1C(=O)N1CCC[C@H]1C(=O)N1CCCN1C(=O)N1CCC[C@H]1C(=O)N1CCCN1C(=O)N1CCC[C@H]1C(=O)N1CCCN1C(=O)N1CCC[C@H]1C(=O)N1CCCN1C(=O)N1CCC[C@H]1C(=O)N1CCCN1C(=O)N1CCC[C@H]1C(=O)NCCO ?
Response given: 3.52

Challenge: Also check CC(C)(C)OC(=O)[C@@H]1CCCN1C(=O)N1CCCN1C(=O)[C@@H]1CCCN1C(=O)N1CCCN1C(=O)[C@@H]1CCCN1C(=O)N1CCCN1C(=O)[C@@H]1CCCN1C(=O)N1CCCN1C(=O)[C@@H]1CCCN1C(=O)N1CCCN1C(=O)[C@@H]1CCCN1C(=O)N1CCCN1C(=O)[C@@H]1CCCN1C(=O)N1CCCN1C(=O)[C@@H]1CCCN1C(=O)N1CCCN1
Response given: 2.92

Okay, next one:
Challenge: What inhibition of growth at 32 µg/mL value was documented for this compound, O=C([C@@H]1CCCN1C(=O)N1CCCN1C(=O)[C@@H]1CCCN1C(=O)N1CCCN1C(=O)[C@@H]1CCCN1C(=O)N1CCCN1C(=O)[C@@H]1CCCN1C(=O)N1CCCN1C(=O)[C@@H]1CCCN1C(=O)N1CCCN1C(=O)[C@@H]1CCCN1C(=O)N1CCCN1C(=O)[C@@H]1CCCN1C(=O)N1CCCN1C(=O)[C@@H]1CCCN1)N1CCCN1 ?
Response given: 2.38

====

- protocol-summary: Hemolytic activity against human RBC at 1.56 uM after 1 hr by Drabkin's assay relative to control
- Assay type: ADME, cell-based, Erythrocyte
- condition-description: human red blood cells (erythrocytes), read-out: Activity
The entries below are paired with their reported hemolysis at 1 h, 1.56 µM.
# unit: % | format: bare number

Challenge: What hemolysis at 1 h, 1.56 µM value was documented for this compound, O=CN1CCCN1C(=O)N1CCC[C@H]1C(=O)N1CCCN1C(=O)N1CCC[C@H]1C(=O)N1CCCN1C(=O)N1CCC[C@H]1C(=O)N1CCCN1C(=O)N1CCC[C@H]1C(=O)N1CCCN1C(=O)N1CCC[C@H]1C(=O)N1CCCN1C(=O)N1CCC[C@H]1C(=O)NCCO ?
Response given: -0.12

Continuing:
Challenge: What hemolysis at 1 h, 1.56 µM value was documented for this compound, O=CN1CCCN1C(=O)N1CCC[C@H]1C(=O)N1CCCN1C(=O)N1CCC[C@H]1C(=O)N1CCCN1C(=O)N1CCC[C@H]1C(=O)N1CCCN1C(=O)N1CCC[C@H]1C(=O)N1CCCN1C(=O)N1CCC[C@H]1C(=O)N1CCCN1C(=O)N1CCC[C@H]1C(=O)N1CCCN1C(=O)N1CCC[C@H]1C(=O)N1CCCN1C(=O)N1CCC[C@H]1C(=O)NCCO ?
Response given: -0.17

Challenge: Also check O=C(O)[C@@H]1CCCN1C(=O)N1CCCN1C(=O)[C@@H]1CCCN1C(=O)N1CCCN1C(=O)[C@@H]1CCCN1C(=O)N1CCCN1C(=O)[C@@H]1CCCN1C(=O)N1CCCN1C(=O)[C@@H]1CCCN1C(=O)N1CCCN1C(=O)[C@@H]1CCCN1C(=O)N1CCCN1C(=O)[C@@H]1CCCN1C(=O)N1CCCN1C(=O)[C@@H]1CCCN1C(=O)N1CCCN1C(=O)OCc1ccccc1
Response given: -0.452

Challenge: Also check CC(C)(C)OC(=O)N1CCC[C@H]1C(=O)N1CCCN1C(=O)N1CCC[C@H]1C(=O)N1CCCN1C(=O)N1CCC[C@H]1C(=O)N1CCCN1C(=O)N1CCC[C@H]1C(=O)N1CCCN1C(=O)N1CCC[C@H]1C(=O)N1CCCN1C(=O)N1CCC[C@H]1C(=O)N1CCCN1C(=O)N1CCC[C@H]1C(=O)N1CCCN1C(=O)N1CCC[C@H]1C(=O)N1CCCN1C(=O)OCc1ccccc1
Response given: -0.04

Challenge: Also check O=C(O)[C@@H]1CCCN1C(=O)N1CCCN1C(=O)[C@@H]1CCCN1C(=O)N1CCCN1C(=O)[C@@H]1CCCN1C(=O)N1CCCN1C(=O)[C@@H]1CCCN1C(=O)N1CCCN1C(=O)OCc1ccccc1
Response given: 0.542

Challenge: Also check O=CN1CCCN1C(=O)N1CCC[C@H]1C(=O)N1CCCN1C(=O)N1CCC[C@H]1C(=O)N1CCCN1C(=O)N1CCC[C@H]1C(=O)N1CCCN1C(=O)N1CCC[C@H]1C(=O)N1CCCN1C(=O)N1CCC[C@H]1C(=O)N1CCCN1C(=O)N1CCC[C@H]1C(=O)N1CCCN1C(=O)N1CCC[C@H]1C(=O)NCCO
Response given: -0.049

Challenge: Also check CC(C)(C)OC(=O)[C@@H]1CCCN1C(=O)N1CCCN1C(=O)[C@@H]1CCCN1C(=O)N1CCCN1C(=O)[C@@H]1CCCN1C(=O)N1CCCN1C(=O)[C@@H]1CCCN1C(=O)N1CCCN1C(=O)[C@@H]1CCCN1C(=O)N1CCCN1C(=O)[C@@H]1CCCN1C(=O)N1CCCN1C(=O)[C@@H]1CCCN1C(=O)N1CCCN1C(=O)[C@@H]1CCCN1C(=O)N1CCCN1.Cl
Response given: 0

Source: ChEMBL document CHEMBL4196059
